// values below are pIC50; system is UniProt P25779
Note on units: pIC50 is unitless, being -log10 of a concentration expressed in mol/L.

| compound | property-measured | quantitative-result |
| --- | --- | --- |
| COCCn1c(C)cc(C(=O)COC(=O)CNC(=O)c2ccccc2)c1C | pIC50 | 4.74 |
| Cc1ccccc1OCC(=O)NCC(=O)OCC(=O)c1ccc2ccccc2c1 | pIC50 | 6.15 |
| COc1ccc(Cl)cc1NC(=O)COC(=O)C(CC(C)C)N1C(=O)C2CC=CCC2C1=O (stereo unspecified) | pIC50 | 6.00 |
| Cc1cc(NC(=O)COC(=O)C(Cc2c[nH]c3ccccc23)NC(=O)c2ccc(F)cc2)no1 (stereo unspecified) | pIC50 | 5.52 |

Sure, the documented pIC50 for Cc1cc(C(=O)NCC(=O)OC(C(=O)Nc2cc(C(F)(F)F)ccc2Cl)c2ccccc2)ccc1[N+](=O)[O-] (stereo unspecified) is 6.40

The compound listed as `O=C(CNC(=O)c1ccc(Cl)cc1)OCC(=O)c1ccc2c(c1)OCCO2` shows pIC50 equal to 6.30

What the record says about CC(C)C(NC(=O)c1ccco1)C(=O)NCC(c1ccco1)N1CCCCC1 (stereo unspecified) : pIC50 is 5.15

pIC50 reading for CC(NC(=O)c1ccccc1Cl)C(=O)OC(C(=O)Nc1cc(C(F)(F)F)ccc1Cl)c1ccccc1 (stereo unspecified) : 4.96

The measured pIC50 associated with O=C(CNC(=O)c1ccc(Cl)cc1)OC(C(=O)Nc1ccc(Cl)cc1C(F)(F)F)c1ccccc1 (stereo unspecified) reads 6.15

The compound listed as O=C(CNC(=O)c1ccccc1)OC(C(=O)Nc1cc(C(F)(F)F)ccc1Cl)c1ccccc1 (stereo unspecified) shows pIC50 equal to 6.52

# pIC50 (compound: Cc1cc(NC(=O)COC(=O)C(Cc2ccccc2)NC(=O)c2ccco2)no1 (stereo unspecified) ) is 4.42

---

Please consider the recorded pKi for Cruzipain (Trypanosoma cruzi, UniProt P25779) in what follows.
// pKi here means minus log10 of the molar concentration (mol/L)

For orientation, consider the following solved cases.
| compound | quantitative-result |
| --- | --- |
| CC(C)C(NC(=O)c1ccco1)C(=O)NCC(c1ccco1)N1CCCCC1 (centres undefined) | 5.22 |
| Clc1ccc2[nH]c3c(NCCCN4CCOCC4)ncnc3c2c1 | 5.70 |
| COc1ccc(NC(=O)COC(=O)C(CC(C)C)N2C(=O)C3CC=CCC3C2=O)cc1Cl (centres undefined) | 6.10 |

Now for the compound whose pKi we want.
Tested on Cruzipain (Trypanosoma cruzi, UniProt P25779), the item O=C(CNC(=O)c1ccccc1)OC(C(=O)Nc1cc(C(F)(F)F)ccc1Cl)c1ccccc1 (centres undefined) showed pKi equal to 7.19

All figures here come from ChEMBL document CHEMBL1177731.
